Attribution: patent US20250101098A1

- TARGET_OR_TEST_SYSTEM: T1, human nectin-4 protein expressed on the surface of cells (human, UniProt Q96NY8 32-510)
- T1 construct: also called HEK 293 cells overexpressing human nectin-4; HekNectin4
- T1 sequence: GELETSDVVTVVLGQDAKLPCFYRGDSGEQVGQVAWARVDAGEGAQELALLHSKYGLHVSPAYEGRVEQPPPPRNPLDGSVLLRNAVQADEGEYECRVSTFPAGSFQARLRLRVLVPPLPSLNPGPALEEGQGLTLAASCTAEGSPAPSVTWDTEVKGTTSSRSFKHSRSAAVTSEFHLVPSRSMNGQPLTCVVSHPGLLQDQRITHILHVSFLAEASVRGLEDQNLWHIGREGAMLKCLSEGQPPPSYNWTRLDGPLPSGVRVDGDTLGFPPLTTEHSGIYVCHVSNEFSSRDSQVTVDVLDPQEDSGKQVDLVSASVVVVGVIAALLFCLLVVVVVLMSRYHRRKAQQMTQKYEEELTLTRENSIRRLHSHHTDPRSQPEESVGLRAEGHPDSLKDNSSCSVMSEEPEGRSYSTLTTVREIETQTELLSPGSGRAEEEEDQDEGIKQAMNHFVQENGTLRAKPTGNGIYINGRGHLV
- ASSAY_NAME: flow cytometry, HEK 293 cells overexpressing the target
Listed here: items and their measured Flow data.

{"BINDER": "Nectin-4 12E11H/12E11L (recombinant chimeric antibody) (antibody, V domains shown, also called parental 12E11 clone) VH: QVQLKQSGPGLVQPSQSLSITCTVSGFSLTTYGVHWVRQSPGKGLEWLGVIWSGGSTDCNGAFISRLSIIKDNSKSQVFFKMNSLQADDTAIYYCARMTHWYFDVWGTGTTVTVSS VL: DIVMTQSQKFMSTTVGDRVSITCKASQNVNTAVAWYQQKPGQSPKLLIYSASYRYTGVPDRFTGSGSGTDFTLTISNMQSEDLADYFCQQYSNYPLTFGAGTKLELK", "Flow data": 8620}
{"BINDER": "Nectin-4 7H10H/7H10L (recombinant chimeric antibody) (antibody, V domains shown) VH: QVQLQQPGAELVKPGASVKLSCKASGYTFTTYWMHWVKQRPGRGLEWIGGIDPYGAHIKYNEMFKTKATLTVDKPSSTAYMQLSSLTSEDSAVYYCARGDYSNWWWTYWGQGTLVTVSA VL: DIVMTQSQKFMSTTVGDRVSITCKASQNVGTAVAWYQQIPGQSPKLLIYSASNRYTGVPDRFTGSGSGTDFTLTITNMQSEDLADYFCQHYSSYPWTFGGGTKLEIK", "Flow data": 12300}
{"BINDER": "Nectin-4 7 E8H/7 E8L (recombinant chimeric antibody) (antibody, V domains shown) VH: QVQLKQSGPGLVQPSQSLSITCTVSGFSLATYGVHWVRQSPGKGLEWLGVIWSGGSTDYNAAFISRLSISKDNSKSQVFFKMNSLQADDTAIYYCARNSHWYFDVWGTGTTVTVSS VL: DIVMTQSQKFMSTSVGDRVSVTCKASQNVVTNVAWYQQKPGQSPKALIYSASYRYSGVPDRFTGSGSGTDFTLTISHVQSEDLAEYFCHQYNNYPYTFGGGTKLEIK", "Flow data": 9200}
